Values compiled from patent US20240139125A1.

test: Cell viability for BIA and analogues, DU145 cell line; assay type: cell-based; conditions: human; DU145, 50 rpm
met if viability is below 30%. not met if not; exact matches included in not met.

Chemical string: Nc1ccccc1C(=O)/C=C/c1cc(O)cc(Br)c1
Label value: not met
--
Chemical string: COc1ccccc1C(=O)/C=C/c1cccc([N+](=O)[O-])c1
Label value: met
--
Chemical string: Nc1ccccc1C(=O)/C=C/c1ccc(C(F)(F)F)cc1
Label value: met
--
Chemical string: N/C(=N\O)c1cccc(/C=C/C(=O)c2ccccc2N)c1
Label value: met
--
Chemical string: CC(C)(C)OC(=O)Nc1cccc(/C=C/C(=O)c2ccccc2N)c1
Label value: met
--
Chemical string: Nc1ccccc1C(=O)/C=C/c1ccc(F)cc1F
Label value: met
--
Chemical string: COc1ccc(C(=O)/C=C/c2cccc([N+](=O)[O-])c2)c(N)c1
Label value: not met
--
Chemical string: CC(C)(C)c1ccc(/C=C/C(=O)c2ccccc2N)cc1
Label value: met
--
Chemical string: Nc1ccccc1-c1cc(-c2cccc(C(F)(F)F)c2)ncn1
Label value: not met
--
Chemical string: COc1cc(N)c(C(=O)/C=C/c2cc(O)cc(Br)c2)cc1OC
Label value: not met
--
Chemical string: O=C(/C=C/c1cccc([N+](=O)[O-])c1)c1ccccc1O
Label value: not met
--
Chemical string: Cc1ccc(/C=C/C(=O)c2ccccc2N)cc1
Label value: met
--
Chemical string: Nc1ccccc1C(=O)/C=C/c1cccc(Br)c1
Label value: met
--
Chemical string: COc1cc(N)c(C(=O)/C=C/c2cccc(C(F)(F)F)c2)cc1OC
Label value: not met
--
Chemical string: Nc1ccc(F)cc1C(=O)/C=C/c1cccc([N+](=O)[O-])c1
Label value: not met
--
Chemical string: N#Cc1cccc(/C=C/C(=O)c2ccccc2N)c1
Label value: met
--
Chemical string: CNC(=O)c1cccc(/C=C/C(=O)c2ccccc2N)c1
Label value: not met
--
Chemical string: Nc1ccccc1C(=O)/C=C/c1ccc([N+](=O)[O-])cc1
Label value: met
--
Chemical string: Nc1ccccc1C(=O)/C=C/c1ccncc1
Label value: met
--
Chemical string: Nc1ccccc1C(=O)/C=C/c1cccnc1
Label value: not met
--
Chemical string: Cc1cccc(/C=C/C(=O)c2ccccc2N)c1
Label value: not met
